System: phospho-Akt in Panc10.05 (G12D)
assay.name: In-Cell Western phospho-Akt, Panc10.05
Format: cell-based
condition.label: Homo sapiens, Panc1005, 1 h; Panc10.05, one hour treatment; read-out: In-Cell Western Panc10.05 (G12D) Akt (P)
pEC50: −log10 of the molar value.
measurement.label: pEC50

Cc1nc(C)c(C(=O)Nc2nc(-c3ccc4c(c3)CCC(=O)N4)c(Cl)s2)s1 [Compound 144]; < 4.60

Asked: Could you share which pEC50 value was measured for Cc1nc(C)c(C(=O)Nc2nc(-c3ccc4c(c3)CCC(=O)N4CCCN(C)C)cs2)o1 [Compound 98] ?
Given back: < 4.60

Asked: For the compound shown here, CCc1nc(C)c(C(=O)Nc2nc(-c3ccc4c(c3)CCC(=O)N4Cc3cccnc3)cs2)s1 [Compound 106] , give the reported pEC50.
Given back: < 4.60

Asked: I'd like to know its pEC50. The compound in question is Cc1nc(C2CCOC2O)sc1C(=O)Nc1nc(-c2ccc3c(c2)CCC(=O)N3Cc2cccnc2)cs1 (stereo not shown) [Compound 71]
Given back: < 4.60

Asked: Form field: reported pEC50 of Cc1ncc(C(=O)Nc2nc(-c3ccc4c(c3)CCC(=O)N4)cs2)c(C)n1 [Compound 148]
Given back: < 4.60

Asked: If you can, please state the reported pEC50 value of CCc1nc(C)c(C(=O)Nc2nc(-c3ccc4c(c3)CCC(=O)N4Cc3cccnc3)cs2)o1 [Compound 64] .
Given back: < 4.60

Asked: Field request: pEC50 | item: Cc1cn(C)nc1C(=O)Nc1nc(-c2ccc3c(c2)CCC(=O)N3)cs1 [Compound 23]
Given back: < 4.60

Asked: Tell me the measured pEC50 of Cc1nc(C(C)C)sc1C(=O)Nc1nc(-c2ccc3c(c2)CCC(=O)N3Cc2cccnc2)cs1 [Compound 107] , please.
Given back: < 4.60

Asked: Please give the measured pEC50 for this compound: Cc1nc(C)c(C(=O)Nc2nc(-c3ccc4c(c3)CCC(=O)N4Cc3nnn[nH]3)cs2)o1 [Compound 109]
Given back: < 4.60

Asked: pEC50 for CC(C)c1cc(C(=O)Nc2nc(-c3ccc4c(c3)CCC(=O)N4)cs2)n(C)n1 [Compound 44] ?
Given back: < 4.60
